// data source = patent US10562947B2

TGT: Ret(h) (Homo sapiens, UniProt P07949)
Construct: purchased Millipore (IC50 Profiler Express service)
METHOD: Kinase Profiling Assay
Type: biochemical
EXPERIMENTAL_PARAMETERS: 100 μM peptide
Measured Ret(h) % activity by item

# QUERY_SEQUENCE, Ret(h) % activity [%]
records = [
    ("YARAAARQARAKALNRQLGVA (Mammalian) [MMI-0200]", 96),
    ("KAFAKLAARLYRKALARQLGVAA [MMI-0400]", 145),
    ("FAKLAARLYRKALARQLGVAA [MMI-0300]", 140),
    ("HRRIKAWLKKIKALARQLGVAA (Mammalian) [MMI-0500]", 174),
]
